Data provenance is patent US20190023792A1.

Recorded Kd values for a group of binders are listed next.
target.or.test.system: T1, human PD-1_His (human, UniProt Q15116 25-167, limits assumed)
T1 construct: also called hPD-1_HIS
T1 sequence (Q15116 25-167 limits assumed): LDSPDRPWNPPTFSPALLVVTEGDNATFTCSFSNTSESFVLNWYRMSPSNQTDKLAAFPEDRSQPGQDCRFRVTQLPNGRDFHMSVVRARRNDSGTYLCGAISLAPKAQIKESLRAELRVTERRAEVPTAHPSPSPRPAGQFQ
assay.comment: BLI (ForteBio), hPD-1_HIS in solution, IgG on sensor tip
Please give the number followed by its unit.

Reference set, count: 2
xd-16 E, IgG1 format expressed in yeast (antibody, V domains shown, Tested as IgG1 expressed in yeast; also called Antibody E) VH: QVQLVQSGAEVKKPGSSVKVSCKASGGTFSSTAISWVRQAPGQGLEWMGGIWPSFGTANYARKFQGRVTITADESTSTAYMELSSLRSEDTAVYYCARAEYSSTGIFDYWGQGTLVTVSS VL: DIQMTQSPSSVSASVGDRVTITCRASQGISSWLAWYQQKPGKAPKLLISAASSLQSGVPSRFSGSGSGTDFTLTISSLQPEDFATYYCQQANHLPFTFGGGTKVEIK    560 pM
xd-16 C, IgG1 format expressed in yeast (antibody, V domains shown, Tested as IgG1 expressed in yeast; also called Antibody C) VH: QVQLVQSGAEVKKPGSSVKVSCKASGGTFSSTAISWVRQAPGQGLEWMGGIWPSFGTASYAQKFRGRVTITADESTSTAYMELSSLRSEDTAVYYCARAEYSSTGTFDYWGQGTLVTVSS VL: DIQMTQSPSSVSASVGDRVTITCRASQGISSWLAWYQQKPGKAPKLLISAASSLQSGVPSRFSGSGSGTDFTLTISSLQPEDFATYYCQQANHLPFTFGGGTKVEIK    380 pM

Q: Answer with reported Kd of xd-16 D, IgG1 format expressed in yeast (antibody, V domains shown, Tested as IgG1 expressed in yeast; also called Antibody D) VH: QVQLVQSGAEVKKPGSSVKVSCKASGGTFSSTAISWVRQAPGQGLEWMGGIWPSFDTANYAQKFRGRVTITADESTSTAYMELSSLRSEDTAVYYCARAEYSSTGTFDYWGQGTLVTVSS VL: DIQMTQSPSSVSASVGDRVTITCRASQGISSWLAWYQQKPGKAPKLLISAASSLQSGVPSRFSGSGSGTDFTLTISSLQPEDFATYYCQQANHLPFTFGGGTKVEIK
Result: 650 pM

Q: Please indicate Kd recorded for xd-16 B, IgG1 format expressed in yeast (antibody, V domains shown, Tested as IgG1 expressed in yeast; also called Antibody B) VH: QVQLVQSGAEVKKPGSSVKVSCKASGGTFSSTAISWVRQAPGQGLEWMGGIWPSFGTASYAQKFQGRVTITADESTSTAYMELSSLRSEDTAVYYCARAEYSSTGIFDYWGQGTLVTVSS VL: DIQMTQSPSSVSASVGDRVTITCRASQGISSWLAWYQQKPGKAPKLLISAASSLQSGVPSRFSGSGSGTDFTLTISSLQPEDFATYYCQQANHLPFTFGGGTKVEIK
Result: 420 pM
